experimental.target: human P2X7 (Homo sapiens (Human))
Sequence (Q99572 whole entry): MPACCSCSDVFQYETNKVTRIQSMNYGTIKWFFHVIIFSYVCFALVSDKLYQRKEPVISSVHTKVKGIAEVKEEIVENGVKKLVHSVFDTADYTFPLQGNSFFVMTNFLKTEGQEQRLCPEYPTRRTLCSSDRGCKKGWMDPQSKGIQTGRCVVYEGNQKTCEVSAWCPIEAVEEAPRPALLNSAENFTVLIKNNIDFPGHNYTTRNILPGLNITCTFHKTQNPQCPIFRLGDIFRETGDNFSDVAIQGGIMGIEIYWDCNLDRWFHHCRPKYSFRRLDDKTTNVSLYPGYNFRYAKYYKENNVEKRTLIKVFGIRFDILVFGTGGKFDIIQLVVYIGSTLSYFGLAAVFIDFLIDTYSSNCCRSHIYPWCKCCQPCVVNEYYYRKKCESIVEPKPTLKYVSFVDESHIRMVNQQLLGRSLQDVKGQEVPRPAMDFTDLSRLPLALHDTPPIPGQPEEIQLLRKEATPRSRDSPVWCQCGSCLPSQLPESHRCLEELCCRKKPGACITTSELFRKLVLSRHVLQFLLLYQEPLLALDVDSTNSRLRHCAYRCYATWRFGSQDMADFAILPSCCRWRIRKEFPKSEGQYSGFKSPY
experiment.description: Ca2+ flux (FLIPR) in 1321N1 cells expressing recombinant human P2X7;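 note: cells loaded with Calcium-4 dye, preincubated with test compound for 30 min, fluorescence change read 180 s after agonist addition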
Type: cell-based
test.context: 1321N1 cells, recombinant human P2X7, 250 μM BzATP
metric.name: IC50 (nM)

// worked examples, IC50 included
Cc1nccc(-n2nnc3c2CCN(C(=O)c2ccnc(C(F)(F)F)c2Cl)C3C)n1 (stereo not shown) ... 1720
Cc1c(C(=O)N2Cc3nnn(-c4ccn[nH]4)c3C[C@@H]2C)cccc1C(F)(F)F (single isomer, unassigned) ... 1200

1. Cc1ccnc(-n2nnc3c2CCN(C(=O)c2cccc(OC(F)(F)F)c2F)C3C)c1 (stereo not shown)
2. O=C(c1cccc(C(F)(F)F)c1Cl)N1CCc2c(nnn2-c2cc(F)ccn2)C1
3. CC1c2ncn(-c3ccc(F)cn3)c2CCN1C(=O)c1ccc(F)c(Cl)c1Cl (stereo not shown)
## Task Reorder: IC50, max to min. # answer = labels listed in requested order
## Result 1, 3, 2
(1: 1660 nM, 3: 29.3 nM, 2: 2.1 nM)

Hello, the source for this data is patent US10112937B2, in case you need it.
